Reference source for all entries: the supplement of paper PMC9112550

System: Escherichia coli TOP10
MEASUREMENT DESCRIPTION: shrunken log2 fold change of peptide-encoding DNA abundance (4.5 h post-induction vs induction); higher = less antimicrobial activity (less host growth inhibition)
CONDITIONS USED: time post-induction: 4.5 h; library: site-saturation at positions 5, 18, 19, 20
RESULT TYPE: shrunken log2 fold change
Could you keep your reply to the number by itself?

Answered cases to consult:
{"columns": ["SEQUENCE", "shrunken log2 fold change"],
 "data": [
  ["RRIRTRPPRLPRPRPRPQHDPRP", -0.259],
  ["RRIRVRPPRLPRPRPRPYMQPRP", -0.547],
  ["RRIRPRPPRLPRPRPRPCKGPRP", -0.252]
]}

RRIRNRPPRLPRPRPRPLCRPRP has a reported shrunken log2 fold change of -0.372

RRIRHRPPRLPRPRPRPTSFPRP has a reported shrunken log2 fold change of 0.0399

RRIRDRPPRLPRPRPRPNTFPRP has a reported shrunken log2 fold change of -0.0294

RRIRPRPPRLPRPRPRPMVIPRP has a reported shrunken log2 fold change of -0.0869

RRIRPRPPRLPRPRPRPAHPPRP has a reported shrunken log2 fold change of 0.273

RRIRCRPPRLPRPRPRPRCFPRP has a reported shrunken log2 fold change of -0.158

RRIRHRPPRLPRPRPRPPWTPRP has a reported shrunken log2 fold change of -0.131

RRIRYRPPRLPRPRPRPMLVPRP has a reported shrunken log2 fold change of -0.176

RRIRGRPPRLPRPRPRPHMRPRP has a reported shrunken log2 fold change of 0.997

RRIRNRPPRLPRPRPRPTTYPRP has a reported shrunken log2 fold change of -0.228

RRIRQRPPRLPRPRPRPMMCPRP has a reported shrunken log2 fold change of -0.0115

RRIRYRPPRLPRPRPRPADIPRP has a reported shrunken log2 fold change of -0.0376

RRIRSRPPRLPRPRPRPSTVPRP has a reported shrunken log2 fold change of -0.353

RRIRTRPPRLPRPRPRPLGPPRP has a reported shrunken log2 fold change of 0.114

RRIRGRPPRLPRPRPRPCWMPRP has a reported shrunken log2 fold change of 0.301

RRIRKRPPRLPRPRPRPWYMPRP has a reported shrunken log2 fold change of -0.158

RRIRDRPPRLPRPRPRPWACPRP has a reported shrunken log2 fold change of 0.0329

----------
System: Escherichia coli TOP10
MEASUREMENT DESCRIPTION: shrunken log2 fold change of peptide-encoding DNA abundance (4.5 h post-induction vs induction); higher = less antimicrobial activity (less host growth inhibition)
CONDITIONS USED: time post-induction: 4.5 h; library: site-saturation at positions 5, 18, 19, 20
RESULT TYPE: shrunken log2 fold change
Could you keep your reply to the number by itself?

{"columns": ["SEQUENCE", "shrunken log2 fold change"],
 "data": [
  ["RRIRQRPPRLPRPRPRPTSFPRP", -0.0413],
  ["RRIRIRPPRLPRPRPRPWCSPRP", -0.412],
  ["RRIRPRPPRLPRPRPRPKFFPRP", 0.0479],
  ["RRIRRRPPRLPRPRPRPCESPRP", 0.0471],
  ["RRIRRRPPRLPRPRPRPDRIPRP", 0.14]
]}

RRIRARPPRLPRPRPRPIQSPRP has a reported shrunken log2 fold change of -0.035

RRIRSRPPRLPRPRPRPINWPRP has a reported shrunken log2 fold change of -0.161

RRIRIRPPRLPRPRPRPVDGPRP has a reported shrunken log2 fold change of -0.169

RRIRWRPPRLPRPRPRPHATPRP has a reported shrunken log2 fold change of 0.816

RRIRIRPPRLPRPRPRPRPAPRP has a reported shrunken log2 fold change of 0.286

RRIRYRPPRLPRPRPRPYDPPRP has a reported shrunken log2 fold change of -0.325

----------
This listing pairs sequences with measured shrunken log2 fold change.
Test system: Escherichia coli TOP10
MEASUREMENT DESCRIPTION: shrunken log2 fold change of peptide-encoding DNA abundance (4.5 h post-induction vs induction); higher = less antimicrobial activity (less host growth inhibition)
CONDITIONS USED: time post-induction: 4.5 h; library: site-saturation at positions 5, 18, 19, 20
Could you keep your reply to the number by itself?

Answered cases to consult:
{"columns": ["SEQUENCE", "MEASURED TARGET", "shrunken log2 fold change"],
 "data": [
  ["RRIRARPPRLPRPRPRPTIHPRP", "Escherichia coli TOP10", -0.0543],
  ["RRIRQRPPRLPRPRPRPVSIPRP", "Escherichia coli TOP10", 0.0429]
]}

shrunken log2 fold change on Escherichia coli TOP10 for RRIRWRPPRLPRPRPRPLAAPRP is 0.994

shrunken log2 fold change on Escherichia coli TOP10 for RRIRSRPPRLPRPRPRPFDYPRP is -0.0792

shrunken log2 fold change on Escherichia coli TOP10 for RRIRHRPPRLPRPRPRPDPTPRP is -0.0262

----------
System: Escherichia coli TOP10
MEASUREMENT DESCRIPTION: shrunken log2 fold change of peptide-encoding DNA abundance (4.5 h post-induction vs induction); higher = less antimicrobial activity (less host growth inhibition)
CONDITIONS USED: time post-induction: 4.5 h; library: site-saturation at positions 5, 18, 19, 20
This listing pairs sequences with measured shrunken log2 fold change.
Could you keep your reply to the number by itself?

{"columns": ["SEQUENCE", "shrunken log2 fold change"],
 "data": [
  ["RRIRCRPPRLPRPRPRPYLHPRP", -1.18]
]}

RRIRQRPPRLPRPRPRPPDSPRP has a reported shrunken log2 fold change of 0.377

RRIRDRPPRLPRPRPRPKSYPRP has a reported shrunken log2 fold change of 0.0134

RRIRGRPPRLPRPRPRPESVPRP has a reported shrunken log2 fold change of 1.42

RRIRRRPPRLPRPRPRPQTTPRP has a reported shrunken log2 fold change of 0.137

RRIRIRPPRLPRPRPRPGMCPRP has a reported shrunken log2 fold change of -0.238

----------
Test system: Escherichia coli TOP10
MEASUREMENT DESCRIPTION: shrunken log2 fold change of peptide-encoding DNA abundance (4.5 h post-induction vs induction); higher = less antimicrobial activity (less host growth inhibition)
CONDITIONS USED: time post-induction: 4.5 h; library: site-saturation at positions 5, 18, 19, 20
// label = Fulfilled if shrunken log2 fold change is not less than 0.05, otherwise Not fulfilled

Look over these answered cases.
{"columns": ["SEQUENCE", "ASSIGNED LABEL"],
 "data": [
  ["RRIRHRPPRLPRPRPRPSHWPRP", "Not fulfilled"],
  ["RRIRDRPPRLPRPRPRPLMVPRP", "Not fulfilled"],
  ["RRIRWRPPRLPRPRPRPIARPRP", "Not fulfilled"],
  ["RRIRERPPRLPRPRPRPPSLPRP", "Not fulfilled"]
]}

Exercise: Is shrunken log2 fold change for RRIRNRPPRLPRPRPRPLGCPRP at or above 0.05?
Key: Not fulfilled

Exercise: Is shrunken log2 fold change for RRIRDRPPRLPRPRPRPFIDPRP at or above 0.05?
Key: Fulfilled

----------
This listing pairs sequences with measured shrunken log2 fold change.
Test system: Escherichia coli TOP10;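 note: peptides expressed intracellularly from a pBAD plasmid library in pooled LB shake-flask culture, induced with 0.3% L-arabinose, DNA abundance read by NGS, three biological replicates, DESeq2 with apeglm shrinkage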
MEASUREMENT DESCRIPTION: shrunken log2 fold change of peptide-encoding DNA abundance (4.5 h post-induction vs induction); higher = less antimicrobial activity (less host growth inhibition)
CONDITIONS USED: time post-induction: 4.5 h; library: site-saturation at positions 5, 18, 19, 20

Answered cases to consult:
{"columns": ["SEQUENCE", "MEASURED TARGET", "REPORTED"],
 "data": [
  ["RRIRTRPPRLPRPRPRPSDQPRP", "Escherichia coli TOP10", -0.183],
  ["RRIRTRPPRLPRPRPRPTLDPRP", "Escherichia coli TOP10", 0.249],
  ["RRIRERPPRLPRPRPRPDRYPRP", "Escherichia coli TOP10", -0.00433],
  ["RRIRSRPPRLPRPRPRPVLFPRP", "Escherichia coli TOP10", -0.0544],
  ["RRIRLRPPRLPRPRPRPPRKPRP", "Escherichia coli TOP10", 0.659],
  ["RRIRFRPPRLPRPRPRPTCAPRP", "Escherichia coli TOP10", 0.564],
  ["RRIRDRPPRLPRPRPRPQARPRP", "Escherichia coli TOP10", 1.05],
  ["RRIRLRPPRLPRPRPRPGCFPRP", "Escherichia coli TOP10", 0.269],
  ["RRIRGRPPRLPRPRPRPAVIPRP", "Escherichia coli TOP10", 0.232],
  ["RRIRGRPPRLPRPRPRPNETPRP", "Escherichia coli TOP10", 0.0274]
]}

RRIRVRPPRLPRPRPRPQYYPRP has a reported shrunken log2 fold change of -0.238
